# Test system: Chordin-like protein 2 (CHRDL2)
# ASSAY_DETAILS: CHRDL2 small-molecule binders, primary screen, biochemical, small-molecule microarray, 635 nm fluorescence (AID 1126);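 further: printed compound slides probed with Chrdl2 protein at 4 µg/mL for 1 h at 4 C; score merges 667 nm emission intensity with signal to noise over three replicate slides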
# CONDITIONS: small-molecule microarray binding, fluorescence 635 nm; higher = more signal
In this section, each of the compounds is paired with its reported composite z-score.

COMPOUND	EXPERIMENTAL_SYSTEM	composite z-score
CC(C)[C@@H](OCc1ccccc1)[C@H](C)C=NO[C@@H](C)c1cn([C@H](CO)Cc2ccccc2)nn1	Chordin-like protein 2 (CHRDL2)	0.191
CC(C)=NOC(C)CN1CCCc2nc(C)c(C)cc21 (stereo not given)	Chordin-like protein 2 (CHRDL2)	0.74
COc1ccc(O[C@H]2C=C[C@@H](c3ccccc3)O[C@@H]2COC(=O)NCc2cccc3ccccc23)cc1	Chordin-like protein 2 (CHRDL2)	0.281
CCOC(=O)[C@H](Cc1ccccc1)NC(=O)CCC1CC(OC(=O)NCc2cccc3ccccc23)CC2(CCCC(COC(=O)NCc3ccc4c(c3)OCO4)O2)O1 (stereo not given in full)	Chordin-like protein 2 (CHRDL2)	-0.054
CC(CCN1CCCCc2nc(C)c(C)cc21)=NO[C@H](C)c1cn([C@@H]2COC[C@H]2O)nn1	Chordin-like protein 2 (CHRDL2)	1.49
CC(C)=NO[C@@H](C)c1cn([C@H](CO)Cc2ccccc2)nn1	Chordin-like protein 2 (CHRDL2)	0.655
CCN(CC)CC(O)CN1CCCCc2nc(C)c(C)cc21 (stereo not given)	Chordin-like protein 2 (CHRDL2)	0.468
CCOC(=O)[C@H](CC(C)C)NC(=O)CCC1CC(OC(=O)NCc2ccc3c(c2)OCO3)CC2(CCCC(COC(=O)NCCc3ccccc3OC)O2)O1 (stereo not given in full)	Chordin-like protein 2 (CHRDL2)	0.663
COC(=O)[C@@H]1CC[C@H](C)[C@@H](c2ccc(C)cc2)N1C(=O)c1ccc(C=NOC[C@H]2O[C@H](c3ccccc3)C=C[C@@H]2Oc2ccc(OC)cc2)cc1	Chordin-like protein 2 (CHRDL2)	0.692
CCOC(=O)[C@H](CC(C)C)NC(=O)CCC1CC(OC(=O)NCCc2ccc(F)cc2)CC2(CCCC(COC(=O)NCCCN3CCCC3=O)O2)O1 (stereo not given in full)	Chordin-like protein 2 (CHRDL2)	0.473

---

Reported composite z-score is given for each of the following molecules.
# ASSAY_DETAILS: small-molecule microarray binders of probe aLefty2, primary screen, biochemical, biotinylated probe, 635/667 nm fluorescence (AID 1094);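 further: score merges spot fluorescence near 667 nm with spot signal-to-noise ratio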
# CONDITIONS: higher = more signal
MEASUREMENT_TYPE: composite z-score

> print(dat)
                                    molecule   measurement.type  reported.result
 1  O=C1[C@H]2[C@H]3[C@H](O)[C@H](O)CC(=NOCc4ccccc4)[C@H]3CC[C@H]2C(=O)N1C1CCCCC1  composite z-score           -0.162
 2  COc1ccc(O[C@H]2C=C[C@@H](c3ccccc3)O[C@@H]2CON=C2c3cc(OC)ccc3O[C@H](c3cccc(OC)c3)[C@H]2O)cc1  composite z-score           -0.231
 3  C[C@@H]1CC[C@H]2C(=O)O[C@@H](COc3ccc(C(C)(C)C)cc3)CN2[C@H]1c1ccc(Br)cc1  composite z-score           -0.159
 4  COc1ccc(O[C@H]2C=C[C@@H](c3ccccc3)O[C@@H]2CON=C(C)CCN2CCCc3nc(C)c(C)cc32)cc1  composite z-score          -0.0511
 5  CC(CCC(=O)OC[C@H]1O[C@H](C#Cc2ccccc2)C=C[C@@H]1Oc1ccc(C)cc1)=NOC(C)CN1CCCc2nc(C)c(C)cc21 (some centres not stated)  composite z-score          -0.0849
 6  COC(=O)[C@@H]1CC[C@H](C)[C@@H](c2ccc(Br)cc2)N1C(=O)C(F)(F)F  composite z-score            -0.22
 7  C=CC[C@@H]1C=CC(ON=C(C)C)[C@@H](CO)O1 (some centres not stated)  composite z-score           -0.103
 8  CC(C)CON=C1C[C@@H](O)[C@@H](O)[C@@H]2[C@@H]3C(=O)N([C@@H](C)c4ccccc4)C(=O)[C@@H]3CC[C@@H]12  composite z-score            0.224
 9  COc1ccc(O[C@H]2C=C[C@@H](c3ccccc3)O[C@@H]2CO)cc1  composite z-score          -0.0603
10  CCc1cc2c(nc1CC)CCN(CCC(C)=NOC[C@@H](C)[C@H](OCc1ccccc1)C(C)C)C2  composite z-score           -0.224
11  CC(C)CON=C1C[C@@H](O)[C@@H](O)[C@@H]2[C@@H]3C(=O)N(c4ccc(F)cc4F)C(=O)[C@@H]3CC[C@@H]12  composite z-score           -0.212
12  O=C1[C@H]2[C@H]3[C@H](O)[C@H](O)CC(=NO[C@@H]4O[C@H](CO)[C@@H](O)[C@H](O)[C@H]4O)[C@H]3CC[C@H]2C(=O)N1C[C@@H]1CCCO1  composite z-score           0.0136
13  O=C1C=C[C@@H](O)[C@@H]2[C@@H]3C(=O)N(Cc4ccc5c(c4)OCO5)C(=O)[C@@H]3CC[C@@H]12  composite z-score           -0.116
14  CCN1C(=O)[C@H]2[C@H]3[C@H](O)[C@H](O)CC(=NOC(C)CN4CCCc5nc(C)c(C)cc54)[C@@H]3CC[C@H]2C1=O (some centres not stated)  composite z-score           0.0416
15        CON=C[C@@H](OC)[C@H](C)C=CCC(=O)OC  composite z-score          -0.0702
16  CC(CCC(=O)OC[C@H]1O[C@H](C#Cc2ccccc2)C=C[C@@H]1Oc1ccc(C)cc1)=NOC[C@@H](C)[C@H](OCc1ccccc1)C(C)C  composite z-score           -0.342
17  C[C@@H](c1ccccc1)N1C(=O)[C@H]2[C@H]3[C@H](O)[C@H](O)CC(=NNC(=O)OCc4ccccc4)[C@@H]3CC[C@H]2C1=O  composite z-score            -0.19
18  COC(=O)[C@H](C)NC(=O)CCC1CC(OC(=O)NCc2ccc3c(c2)OCO3)CC2(CCCC(COC(=O)NCc3ccccc3)O2)O1 (some centres not stated)  composite z-score           -0.157
19  C=C(C)C(=O)OC[C@H]1CN2[C@@H](CC[C@@H](C)[C@@H]2c2ccc(Br)cc2)C(=O)O1  composite z-score           -0.166
20  CO[C@H]1C[C@@H]2C[C@H](O)CC(CC(=O)O[C@@H](C=CCC(C)C)C[C@@H]3CC[C@H](C)[C@@H](C1)O3)O2  composite z-score           -0.158
21  CCN1C(=O)[C@H]2[C@H]3[C@H](O)[C@H](O)CC(=NOCC[C@@H]4C=C[C@H](OC(C)=O)[C@@H](COC(C)=O)O4)[C@@H]3CC[C@H]2C1=O  composite z-score           0.0819
22    CC#CCOCCC=C1c2ccccc2[C@@H](OC)[C@@H]1C  composite z-score          -0.0266

---

# EXPERIMENTAL_SYSTEM: Alpha-bungarotoxin (Bungarus multicinctus) (UniProt P60615)
# Sequence (P60615 whole entry, looked up): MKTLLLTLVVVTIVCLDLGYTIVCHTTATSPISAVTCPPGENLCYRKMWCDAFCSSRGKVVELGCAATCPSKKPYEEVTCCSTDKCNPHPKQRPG
# ASSAY_DETAILS: alpha-bungarotoxin binders on microarray, profiling panel, artefact control for SMM control protein annotation, biochemical, small-molecule microarray, Alexa647 label, 635/667 nm fluorescence (AID 1117)
# CONDITIONS: alpha-BTX-A647 binding fluorescence, higher = more signal
Recorded composite z-score values for a group of compounds are listed next.

COMPOUND	EXPERIMENTAL_SYSTEM	composite z-score
CC#CCOCCC=C1c2ccccc2[C@@H](OC)[C@@H]1C	Alpha-bungarotoxin (Bungarus multicinctus) (UniProt P60615)	-0.0725
CO[C@H]1COC(=O)[C@H](C)COC(=O)[C@H](C)NC(=O)CC=C[C@H]1C	Alpha-bungarotoxin (Bungarus multicinctus) (UniProt P60615)	-0.369
C=CC[C@@H]1C=C[C@H](Oc2ccc(C)cc2)[C@@H](COC(=O)NCc2cccc3ccccc23)O1	Alpha-bungarotoxin (Bungarus multicinctus) (UniProt P60615)	-0.212
CCOC(=O)[C@H](Cc1ccccc1)NC(=O)CCC1CC(OC(=O)NCc2cccc3ccccc23)CC2(CCCC(COC(=O)NCc3ccc4c(c3)OCO4)O2)O1 (stereo partly drawn)	Alpha-bungarotoxin (Bungarus multicinctus) (UniProt P60615)	-0.382
O=C(NN=C1C[C@@H](O)[C@@H](O)[C@@H]2[C@@H]3C(=O)N(c4ccc(F)cc4F)C(=O)[C@@H]3CC[C@H]12)OCc1ccccc1	Alpha-bungarotoxin (Bungarus multicinctus) (UniProt P60615)	0.555
CCOC(=O)[C@H](Cc1ccccc1)NC(=O)CCC1CC(OC(=O)NCCc2ccc(F)cc2)CC2(CCCC(COC(=O)NCCOc3ccccc3)O2)O1 (stereo partly drawn)	Alpha-bungarotoxin (Bungarus multicinctus) (UniProt P60615)	0.472
O=C1[C@H]2[C@H]3[C@H](O)[C@H](O)CC(=NOC[C@@H](O)COCc4ccco4)[C@@H]3CC[C@H]2C(=O)N1C1CCCCC1	Alpha-bungarotoxin (Bungarus multicinctus) (UniProt P60615)	-0.0636
CCN1C(=O)[C@H]2[C@H]3[C@H](O)[C@H](O)CC(=NNC(=O)OCc4ccccc4)[C@@H]3CC[C@H]2C1=O	Alpha-bungarotoxin (Bungarus multicinctus) (UniProt P60615)	0.645
C#CCCCON=C1C[C@@H](O)[C@@H](O)[C@@H]2[C@@H]3C(=O)N(C[C@@H]4CCCO4)C(=O)[C@@H]3CC[C@H]12	Alpha-bungarotoxin (Bungarus multicinctus) (UniProt P60615)	0.355
O=C1C2=CC[C@H]3C(=O)N(C4CCCCC4)C(=O)[C@H]3[C@H]2[C@H](O)[C@@H]2O[C@H]12	Alpha-bungarotoxin (Bungarus multicinctus) (UniProt P60615)	-0.635
CC(CCC(=O)OC[C@H]1O[C@H](C#Cc2ccccc2)C=C[C@@H]1Oc1ccc(C)cc1)=NOC(C)CN1CCCCc2nc(C)c(C)cc21 (stereo partly drawn)	Alpha-bungarotoxin (Bungarus multicinctus) (UniProt P60615)	1.53
CCN1C(=O)[C@H]2[C@H]3[C@H](O)[C@H](O)CC(=NO[C@@H]4O[C@H](COC(C)=O)[C@@H](OC(C)=O)[C@H](OC(C)=O)[C@H]4OC(C)=O)[C@@H]3CC[C@H]2C1=O	Alpha-bungarotoxin (Bungarus multicinctus) (UniProt P60615)	0.721
COC(=O)CC=C[C@@H](C)[C@@H](C=NOC[C@@H](C)[C@H](OCc1ccccc1)C(C)C)NS(=O)(=O)c1ccc(C)cc1	Alpha-bungarotoxin (Bungarus multicinctus) (UniProt P60615)	-1.25
CCN1C(C)=C(C(=O)OC)[C@@H](c2ccccc2)N2C(=O)[C@](O)(C(=O)OC)CC(C(C)=O)=C12	Alpha-bungarotoxin (Bungarus multicinctus) (UniProt P60615)	0.371
CC1(C)O[C@H]2O[C@H]([C@H](O)CON=C3[C@H]4CCn5c(=O)n(-c6ccccc6)c(=O)n5[C@H]4[C@H](O)[C@@H]4O[C@H]34)[C@H](O)[C@H]2O1	Alpha-bungarotoxin (Bungarus multicinctus) (UniProt P60615)	0.168
COc1ccc(COC(=O)NN=C2C[C@@H](O)[C@@H](O)[C@@H]3[C@@H]4C(=O)N(Cc5ccc6c(c5)OCO6)C(=O)[C@@H]4CC[C@H]23)cc1	Alpha-bungarotoxin (Bungarus multicinctus) (UniProt P60615)	0.164
CC(C)=CCCC(C)=CCON=C1C[C@@H](O)[C@@H](O)[C@@H]2[C@@H]3C(=O)N(C4CCCCC4)C(=O)[C@@H]3CC[C@H]12	Alpha-bungarotoxin (Bungarus multicinctus) (UniProt P60615)	0.713
CC(C)CON=C1C[C@@H](O)[C@@H](O)[C@@H]2[C@@H]3C(=O)N(C(C)(C)C)C(=O)[C@@H]3CC[C@@H]12	Alpha-bungarotoxin (Bungarus multicinctus) (UniProt P60615)	-0.718
CCC1=NOC(CCC2CC(OC(=O)NCc3cccc4c3OCO4)CC3(CCCC(COC(=O)NCCc4ccc(Cl)cc4)O3)O2)C1 (stereo not drawn)	Alpha-bungarotoxin (Bungarus multicinctus) (UniProt P60615)	-0.148
O=C1C=C[C@@H](O)[C@@H]2[C@@H]3C(=O)N(C4CCCCC4)C(=O)[C@@H]3CC[C@@H]12	Alpha-bungarotoxin (Bungarus multicinctus) (UniProt P60615)	0.518
CCOC(=O)[C@H](Cc1ccccc1)NC(=O)CCC1CC(OC(=O)NCc2cccc3ccccc23)CC2(CCCC(COC(=O)NCCc3ccccc3OC)O2)O1 (stereo partly drawn)	Alpha-bungarotoxin (Bungarus multicinctus) (UniProt P60615)	0.635
CC(C)[C@@H](OCc1ccccc1)[C@H](C)CON=C1[C@H]2CCn3c(=O)n(-c4ccccc4)c(=O)n3[C@H]2[C@H](O)[C@@H]2O[C@H]12	Alpha-bungarotoxin (Bungarus multicinctus) (UniProt P60615)	0.251
COc1ccc(O[C@H]2C=C[C@@H](c3ccccc3)O[C@@H]2COC(=O)NCc2cccc3ccccc23)cc1	Alpha-bungarotoxin (Bungarus multicinctus) (UniProt P60615)	0.33
CC(C)=NOC(C)CN1CCCc2nc(C)c(C)cc21 (stereo not drawn)	Alpha-bungarotoxin (Bungarus multicinctus) (UniProt P60615)	0.32
CC(CCC(=O)OC[C@H]1O[C@H](C#Cc2ccccc2)C=C[C@@H]1Oc1ccc(C)cc1)=NOC(C)CN1CCCc2nc(C)c(C)cc21 (stereo partly drawn)	Alpha-bungarotoxin (Bungarus multicinctus) (UniProt P60615)	0.898
CCOC(=O)[C@H](CC(C)C)NC(=O)CCC1CC(OC(=O)NCc2ccc3c(c2)OCO3)CC2(CCCC(COC(=O)NCCc3ccc(Cl)cc3)O2)O1 (stereo partly drawn)	Alpha-bungarotoxin (Bungarus multicinctus) (UniProt P60615)	0.983
C[C@@H](c1ccccc1)N1C(=O)[C@H]2[C@H]3[C@H](O)[C@H](O)CC(=NOC[C@@H](O)COCc4ccco4)[C@H]3CC[C@H]2C1=O	Alpha-bungarotoxin (Bungarus multicinctus) (UniProt P60615)	-0.0662
Cc1ccc(C(C)C)n1C(=O)OC(C)(C)C	Alpha-bungarotoxin (Bungarus multicinctus) (UniProt P60615)	0.0251
